Consider the following molecules; for each one, report its Emax.
assayed_target: human mAChR M1 (Homo sapiens)
Sequence (P11229 whole entry): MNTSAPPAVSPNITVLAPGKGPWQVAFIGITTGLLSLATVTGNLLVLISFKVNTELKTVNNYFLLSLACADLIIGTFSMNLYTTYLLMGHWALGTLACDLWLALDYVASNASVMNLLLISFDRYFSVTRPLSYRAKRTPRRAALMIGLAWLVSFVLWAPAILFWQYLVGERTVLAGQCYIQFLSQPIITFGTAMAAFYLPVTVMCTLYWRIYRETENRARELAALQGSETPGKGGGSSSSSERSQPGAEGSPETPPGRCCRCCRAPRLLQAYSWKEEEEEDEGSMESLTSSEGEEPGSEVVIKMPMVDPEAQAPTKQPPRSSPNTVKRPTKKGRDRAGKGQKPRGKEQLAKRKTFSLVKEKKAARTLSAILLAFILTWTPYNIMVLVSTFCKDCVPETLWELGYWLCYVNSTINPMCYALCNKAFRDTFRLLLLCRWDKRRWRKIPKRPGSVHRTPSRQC
method_description: mAChR M1 cell-based functional assay (calcium mobilization), agonist mode: compound alone, Emax relative to acetylcholine maximum
experimental_conditions: relative to the maximum for acetylcholine
Numbers only, in %.

Use the examples below as a reference point.
molecule | assayed_target | Emax / %
[2H]C1([2H])c2ncccc2C(=O)N1Cc1c(F)cc(-c2cnc(OC)c3c2cnn3C)cc1F [Compound 253] | human mAChR M1 (Homo sapiens) | 2
[2H]C1([2H])c2ncccc2C(=O)N1Cc1c(F)cc(-c2cc(OC)c3nn(C)cc3c2)cc1F [Compound 76] | human mAChR M1 (Homo sapiens) | 29
[2H]C1([2H])c2ncccc2C(=O)N1Cc1c(F)cc(-c2cc(Cl)c3nn(C)cc3c2)cc1F [Compound 89] | human mAChR M1 (Homo sapiens) | 1
[2H]C1([2H])c2ncccc2C(=O)N1Cc1ccc(-c2ccc(OCC)c3nn(C)cc23)cc1F [Compound 108] | human mAChR M1 (Homo sapiens) | 8
[2H]C1([2H])c2ncccc2C(=O)N1Cc1ccc(-c2cccc3nn(C)cc23)cc1C [Compound 29] | human mAChR M1 (Homo sapiens) | 33
[2H]C1([2H])c2ncccc2C(=O)N1Cc1c(F)cc(-c2ccc(C(F)(F)F)c3c2cnn3C([2H])([2H])[2H])cc1F [Compound 244] | human mAChR M1 (Homo sapiens) | 2
[2H]C1([2H])c2ncccc2C(=O)N1Cc1ccc(-c2cnc3nn(C)cc3c2)cc1 [Compound 13] | human mAChR M1 (Homo sapiens) | 3
[2H]C1([2H])c2ncccc2C(=O)N1Cc1ccc(-c2cc(F)cc3nn(C)cc23)cc1F [Compound 71] | human mAChR M1 (Homo sapiens) | 1
[2H]C1([2H])c2ncccc2C(=O)N1Cc1c(F)cc(-c2ccc(OC)c3nn(C)cc23)cc1Cl [Compound 163] | human mAChR M1 (Homo sapiens) | 3
[2H]C1([2H])c2ncccc2C(=O)N1Cc1c(F)cc(-c2ccc(OCCOC)c3nn(C)cc23)cc1F [Compound 113] | human mAChR M1 (Homo sapiens) | 41

For each of the molecules below, note its Emax.
1. [2H]C1([2H])c2ncccc2C(=O)N1Cc1c(Cl)cc(-c2cccc3nn(C([2H])([2H])[2H])cc23)cc1C1CC1 [Compound 220]
2. [2H]C1([2H])c2ncccc2C(=O)N1Cc1c(F)cc(-c2ccc3nn(C)cc3c2)cc1F [Compound 8]
3. [2H]C1([2H])c2ncccc2C(=O)N1Cc1c(F)cc(-c2ccc(OC3CC3)c3nn(C)cc23)cc1OCC(C)C [Compound 212]
4. [2H]C1([2H])c2ncccc2C(=O)N1Cc1c(F)cc(-c2cc(F)c(Cl)c3nn(C)cc23)cc1F [Compound 245]
5. [2H]C1([2H])c2ncccc2C(=O)N1Cc1c(F)cc(-c2cccc3nn(C([2H])([2H])[2H])cc23)cc1C1CC1 [Compound 190]

1: 8; 2: 4; 3: 2; 4: 1; 5: 37
